# target_of_assay: T1, recombinant human CSF-1R (form not stated) (human, UniProt P07333 20-512, limits assumed)
# T1 construct: for the ELISA no species is stated; also called recombinant CSF-1R; recombinant CSF-1R protein
# assay_info: BIAcore, humanisation stage, crude cell supernatant
kon reference
I only need the number, in M⁻¹ s⁻¹, no unit after it.

Exercise: Specify reported kon for the binder shown: 969gH2gL1 (antibody, human IgG4 S228P, kappa, name in Kabat numbering, V domains shown, Humanised IgG4 (S241P)/kappa; positions are Kabat; also called Ab969.g6) VH: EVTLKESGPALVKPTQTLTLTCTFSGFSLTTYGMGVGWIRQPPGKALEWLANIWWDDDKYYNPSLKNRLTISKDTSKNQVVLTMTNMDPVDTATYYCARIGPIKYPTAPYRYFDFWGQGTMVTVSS VL: DIQMTQSPSSLSASVGDRVTITCLASEDIYDNLAWYQKKPGKAPKLLIYYASSLQDGVPSRFSGSGSGTDYTLTISSLQPEDFATYFCLQDSEYPWTFGGGTKVEIKR
Solution: 2.27e+06

Exercise: Answer with the recorded kon for the binder listed here: chimeric antibody 969 (rat variable regions, human gamma-4 heavy chain constant region and human kappa chain constant region) (antibody, human IgG4, V domains shown, Alexa-488 label in the cell-based affinity assay; not carried by the letters., Full-length human IgG4 (S241P)/kappa chimeric; also called Ab969) VH: QVTLKESGPGILQPSQTLSLTCTFSGFSLTTYGMGVGWIRQPSGKGLEWLANIWWDDDKYYNPSLKNRLTISKDTSNNQAFLKLTNVHTSDSATYYCARIGPIKYPTAPYRYFDFWGPGTMVTVSS VL: DIQMTQSPASLSASLGETVSIECLASEDIYDNLAWYQKKPGKSPHLLIYYASSLQDGVPSRFSGSGSGTQYSLKINSLESEDAATYFCLQDSEYPWTFGGGTKLELKR
Solution: 2.31e+06

Exercise: Let me know recorded kon for 969gH1gL5 (antibody, human IgG4 S228P, kappa, name in Kabat numbering, V domains shown, Humanised IgG4 (S241P)/kappa; positions are Kabat) VH: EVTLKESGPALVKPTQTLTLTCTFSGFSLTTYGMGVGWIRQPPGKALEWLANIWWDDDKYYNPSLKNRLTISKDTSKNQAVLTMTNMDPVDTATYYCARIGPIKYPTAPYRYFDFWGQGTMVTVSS VL: DIQMTQSPSSLSASVGDRVTITCLASEDIYDNLAWYQQKPGKAPKLLIYYASSLQDGVPSRFSGSGSGTDFTLTISSLQPEDFATYFCLQDSEYPWTFGGGTKVEIKR , thanks.
Solution: 926000

Exercise: Give the reported kon for this binder. 969gH1gL4 (antibody, human IgG4 S228P, kappa, name in Kabat numbering, V domains shown, Humanised IgG4 (S241P)/kappa; positions are Kabat) VH: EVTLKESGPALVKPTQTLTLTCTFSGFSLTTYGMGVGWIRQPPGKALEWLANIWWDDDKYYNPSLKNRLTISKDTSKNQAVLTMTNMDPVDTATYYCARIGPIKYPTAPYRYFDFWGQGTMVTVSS VL: DIQMTQSPSSLSASVGDRVTITCLASEDIYDNLAWYQKKPGKAPKLLIYYASSLQDGVPSRFSGSGSGTDYTLTISSLQPEDFATYYCLQDSEYPWTFGGGTKVEIKR
Solution: 2.39e+06

Cited source for all entries: patent US20180162947A1
